- Test system: TDP-43 aggregation in PC12 cells stably expressing GFP-tagged mutant TDP-43 (TDP-43^Q33IK::eGFP)
- ASSAY_NAME: In vitro efficacy assay: inhibition of TDP-43 inclusions, concentration-response, fluorescence microscopy
- Format: cell-based
- TEST_PARAMETERS: Rattus norvegicus, PC-12, PC12 cells, 1 hour pre-treatment, 15 μM sodium arsenite for 23 hours, 10-point dose response curve
pIC50: −log10 of the molar value.
// reported pIC50 per item
PROPERTY_NAME: pIC50

1) O=C(c1cc2ccccc2[nH]1)N(CC(F)(F)F)[C@H]1CCC[C@H](NCc2ccc(F)cc2)C1 [Compound 180]	5.70 to 6.30
2) CCN(C(=O)c1cc2ncccc2[nH]1)[C@H]1CCC[C@@H](NCc2nnc(C)o2)C1 [Compound 468]	5.70 to 6.30
3) O=C(c1cc2ccccc2[nH]1)N(CC(F)(F)F)[C@H]1CCC[C@@H](NCc2cccnc2)C1 [Compound 175]	> 7.00
4) CCN(C(=O)c1cc2ccccc2[nH]1)[C@H]1CCC[C@@H](NCc2nnc(C)o2)C1 [Compound 469]	6.30 to 7.00
5) CCN(C(=O)c1nc2ccccc2[nH]1)[C@@]1(C)CCC[C@@H](NCc2ccccc2)C1 [Compound 555]	< 5.70
6) CCN(C(=O)c1cc2ccccc2[nH]1)[C@H]1CCC[C@@H](NCc2cncnc2)C1 [Compound 130]	5.70 to 6.30
7) CCN(C(=O)c1cc2ncccc2[nH]1)[C@H]1CCC[C@H](NC2(c3ccccc3)CC2)C1 [Compound 420]	5.70 to 6.30
8) CCN(C(=O)c1cc2ccccc2[nH]1)[C@H]1CCC[C@@H](NCc2ccc(Cl)cc2)C1 [Compound 135]	> 7.00
9) CCN(C(=O)c1cc2ccccc2[nH]1)[C@H]1CCC[C@@H](Nc2nnc(C)s2)C1 [Compound 500]	< 5.70
10) CCN(C(=O)c1nc2ccccc2[nH]1)[C@H]1CCC[C@@H](NCc2cccc(F)c2)C1 [Compound 480]	> 7.00
11) CCN(C(=O)c1cc2ccccc2[nH]1)[C@H]1CCC[C@@H](N[C@H]2CCc3cc(F)ccc32)C1 [Compound 124]	> 7.00
12) CCN(C(=O)c1cc2ncccc2[nH]1)[C@H]1CCC[C@@H](NCc2ccc(F)cc2)C1 [Compound 152]	> 7.00
13) CCN(C(=O)c1cc2c(OC)cccc2[nH]1)[C@H]1CCC[C@@H](NCc2oc3ccccc3c2C#N)C1 [Compound 498]	> 7.00
14) CCN(C(=O)c1cc2ccccc2[nH]1)[C@H]1CCC[C@@H](NCc2ccncn2)C1 [Compound 137]	6.30 to 7.00
15) CCN(C(=O)c1nc2ccccc2[nH]1)[C@H]1CCC[C@@H](NCc2oc3ccccc3c2C)C1 [Compound 476]	> 7.00
16) CCN(C(=O)c1cc2ccccc2[nH]1)[C@H]1CCC[C@@H](NCc2c[nH]cn2)C1 [Compound 466]	< 5.70
17) C#CCCC1(CCOc2ccc(CN[C@@H]3CCC[C@H](N(CC)C(=O)c4cc5ccccc5[nH]4)C3)cc2)N=N1 [Compound 425]	6.30 to 7.00
18) CCN(C(=O)c1cc2ncccc2[nH]1)[C@H]1CCC[C@@H](NCc2cc(C3CC3)on2)C1 [Compound 436]	> 7.00
19) CCN(C(=O)c1nc2cc(C#N)ccc2[nH]1)[C@H]1CCC[C@@H](NCc2ccccc2)C1 [Compound 485]	> 7.00
20) C#CCOc1cccc(CN[C@@H]2CCC[C@H](N(CC)C(=O)c3nc4c(N)cccc4[nH]3)C2)c1 [Compound 568]	> 7.00
21) CCN(C(=O)c1nc2ccccc2[nH]1)[C@H]1CCC[C@@H](NCc2cc3ncccc3o2)C1 [Compound 491]	> 7.00
22) CCN(C(=O)c1nc2cc(F)ccc2[nH]1)[C@H]1CCC[C@@H](NCc2cc(C3CC3)on2)C1 [Compound 552]	> 7.00
23) CCN(C(=O)c1cc2cnccc2[nH]1)[C@H]1CCC[C@@H](NCc2ccccc2)C1 [Compound 401]	6.30 to 7.00
24) CCN(C(=O)c1nc2cc(F)ccc2[nH]1)[C@H]1CCC[C@@H](NCc2ccc(C#N)cc2)C1 [Compound 527]	> 7.00
25) CCN(C(=O)c1nc2cc(F)ccc2[nH]1)[C@H]1CCC[C@@H](NCc2cccc(C#N)c2)C1 [Compound 528]	> 7.00
26) CCN(C(=O)c1nc2ccccc2[nH]1)[C@H]1CCC[C@@H](NCc2cc3ccccn3c2)C1 [Compound 493]	> 7.00
27) CCN(C(=O)c1cc2ncccc2[nH]1)[C@H]1CCC[C@@H](N[C@@H](c2ccccc2)C(F)(F)F)C1 (single isomer, unassigned) [Compound 417]	6.30 to 7.00
28) CCN(C(=O)c1cc2ccccc2[nH]1)[C@H]1CCC[C@H](NCc2cccc(F)c2)C1 [Compound 107]	5.70 to 6.30
29) CCN(C(=O)c1cc2ccccc2[nH]1)[C@H]1CCC[C@@H](NCc2ccc3ncoc3c2)C1 [Compound 464]	> 7.00
30) C#CCOc1cccc(CN[C@@H]2CCC[C@H](N(CC)C(=O)c3nc4cc(N)ccc4[nH]3)C2)c1 [Compound 564]	6.30 to 7.00

====

- System: TDP-43 aggregation in PC12 cells stably expressing GFP-tagged mutant TDP-43 (TDP-43^Q33IK::eGFP)
- ASSAY_NAME: In vitro efficacy assay: inhibition of TDP-43 inclusions, concentration-response, fluorescence microscopy
- Type: cell-based
- TEST_PARAMETERS: Rattus norvegicus, PC-12, PC12 cells, 1 hour pre-treatment, 15 μM sodium arsenite for 23 hours, 10-point dose response curve
pIC50: −log10 of the molar value.
// reported pIC50 per item
PROPERTY_NAME: pIC50

1) CCN(C(=O)c1cc2ccccc2[nH]1)[C@@H]1CCC[C@@H](N[C@H]2CCc3ccccc32)C1	5.70 to 6.30
2) CCN(C(=O)c1cc2cc(F)ccc2[nH]1)[C@H]1CCC[C@@H](NCc2cc3ccccc3o2)C1	> 7.00
3) CCN(C(=O)c1nc2cc(F)ccc2[nH]1)[C@H]1CCC[C@@H](NCc2oc3ccccc3c2C)C1	> 7.00
4) CCN(C(=O)c1cc2cc(C#N)ccc2[nH]1)[C@H]1CCC[C@@H](NCc2cccc(F)c2)C1	> 7.00
5) CCN(C(=O)c1cc2ccccc2[nH]1)[C@H]1CCC[C@@H](NCc2oc3ccccc3c2C)C1	> 7.00
6) CCN(C(=O)c1nc2ccccc2[nH]1)[C@H]1CCC[C@@H](NCc2cc(C3CC3)no2)C1	> 7.00
7) [2H]C([2H])(N[C@@H]1CCC[C@H](N(CC)C(=O)c2nc3ccccc3[nH]2)C1)c1ccccc1	> 7.00
8) CCN(C(=O)c1cc2ccccc2[nH]1)[C@H]1CCC[C@@H](NCCC2CC2)C1	> 7.00
9) CCN(C(=O)c1cc2c(OC)cccc2[nH]1)[C@H]1CCC[C@@H](NCc2ccccc2)C1	> 7.00
10) CCN(C(=O)c1nc2cc(F)ccc2[nH]1)[C@@]1(C)CCC[C@@H](NCc2ccccc2)C1	< 5.70
11) CCN(C(=O)c1cc2ccccc2[nH]1)[C@H]1CCC[C@@H](NCc2cnc(Cl)nc2)C1	6.30 to 7.00
12) O=C(c1cc2ccccc2[nH]1)N(CC(F)(F)F)[C@H]1CCC[C@@H](NCc2cccc(F)c2)C1	> 7.00
13) CCN(C(=O)c1nc2ccccc2[nH]1)[C@H]1CCC[C@@H](NCc2cc3cc(F)ccc3o2)C1	> 7.00
14) CCN(C(=O)c1cc2ccncc2[nH]1)[C@H]1CCC[C@@H](NCc2ccccc2)C1	6.30 to 7.00
15) CCN(C(=O)c1cc2ccccc2[nH]1)[C@H]1CCC[C@@H](Nc2nnc(C3CC3)s2)C1	< 5.70
16) CCN(C(=O)c1cc2ncccc2[nH]1)[C@H]1CCC[C@@H](NCc2ccc3ncoc3c2)C1	> 7.00
17) CCN(C(=O)c1cc2ccccc2[nH]1)[C@H]1CCC[C@@H](NCc2ccnc(OC)c2)C1	> 7.00
18) C#CCOc1ccc(CN[C@@H]2CCC[C@H](N(CC)C(=O)c3nc4cc(N=[N+]=[N-])ccc4[nH]3)C2)cc1	> 7.00
19) CCN(C(=O)c1cc2ncccc2[nH]1)[C@H]1CCC[C@@H](NCc2ccc3ocnc3c2)C1	> 7.00
20) CCN(C(=O)c1cc2ncccc2[nH]1)[C@H]1CCC[C@@H](NC(C)(C)c2ccc(OC)cc2)C1	> 7.00
21) O=C(c1cc2ccccc2[nH]1)N(CC(F)(F)F)[C@H]1COC[C@H](NCc2ccccc2)C1	< 5.70
22) CCN(C(=O)c1nc2cc(C#N)ccc2[nH]1)[C@H]1CCC[C@@H](NCc2cccc(F)c2)C1	> 7.00
23) CCN(C(=O)c1cc2ccccc2[nH]1)[C@H]1CCC[C@@H](NC2(c3ccccc3)COC2)C1	5.70 to 6.30
24) CCN(C(=O)c1cc2ccccc2[nH]1)C1COC[C@@H](N[C@H]2CCc3ccccc32)C1 (stereo partly drawn)	< 5.70
25) C#CCOc1cccc(CN[C@@H]2CCC[C@H](N(CC)C(=O)c3nc4cc([N+](=O)[O-])ccc4[nH]3)C2)c1	> 7.00
26) CCN(C(=O)c1cc2ccccc2[nH]1)[C@H]1CCC[C@@H](NCc2cnc(OC)nc2)C1	> 7.00
27) CCN(C(=O)c1cc2ccccc2[nH]1)[C@H]1CCC[C@@H](NCc2oc3ccccc3c2C#N)C1	> 7.00
28) CCN(C(=O)c1cc2ccccc2[nH]1)[C@@H]1COC[C@H](N[C@@H]2CCc3ccccc32)C1	< 5.70
29) CCN(C(=O)c1cc2ncccc2[nH]1)[C@H]1CCC[C@@H](NCc2cc(C(C)C)no2)C1	> 7.00
30) CCN(C(=O)c1cc2ccccc2[nH]1)[C@H]1CCC[C@@H](NCc2ccc3ocnc3c2)C1	> 7.00

These entries and their values trace back to patent US11542233B2.
